assayedSystem: human SOS1 (nucleotide exchange of K-Ras^G12C) (Homo sapiens)
testSummary: Biochemical assay 2: K-Ras^G12C activation assay by hSOS1 at high GTP concentration (HTRF)
testSettings: read-out: Assay 2 (KRAS-Activation by SOS high GTP) activity expressed as % inhibition at 20 μM; high GTP; at 20 μM
Quick rule: inhibition at 20 µM of at least 30% means true (1), below that means false (0).

Some solved entries appear below for comparison.
In [3]: df
Out[3]:
                                   compound   category
0  COc1cc2nc(C)nc(N[C@@H](C)c3ccc(-c4cccc(OCC5CC5)c4)s3)c2cc1OC (stereo in doubt)  false (0)
1  COc1cc2nc(C)nc(NC(C)c3c(C)nc4ccccn34)c2cc1OC (centres unmarked)   true (1)
2  COc1cc2nc(C)nc(N[C@H](C)c3cccc(-c4ccc(OCc5ccccc5)cc4)c3)c2cc1OC  false (0)
3  COc1cc2nc(C)nc(N[C@@H](C)c3ccc(-c4cccc(-c5nnc(C)o5)c4)s3)c2cc1OC (stereo in doubt)   true (1)
4  COc1cc2nc(C)nc(N[C@@H](C)c3ccc(-c4ccc(C(C)(C)C#N)cc4)s3)c2cc1OC (stereo in doubt)   true (1)

Q. inhibition at 20 µM >= 30% for COc1cc2nc(C)nc(N[C@@H](C)c3ccc(/C=C/c4ccccc4)s3)c2cc1OC (racemic) ?
A. true (1)

Q. Is inhibition at 20 µM for COc1cc2nc(C)nc(N[C@H](C)c3cccc(/C=C/Cc4ccccc4)c3)c2cc1OC at or above 30%?
A. true (1)

Q. Record COc1cc2nc(C)nc(NC(C)c3c(C)ccc4[nH]ncc34)c2cc1OC (centres unmarked) ; criterion: inhibition at 20 µM no lower than 30%. Met?
A. false (0)

Q. Evaluate COc1cc2nc(C)nc(N[C@H](C)c3cccc(/C=C/C4CCCCC4)c3)c2cc1OC : inhibition at 20 µM at minimum 30%?
A. true (1)
